Taken from the supplement of paper PMC3334620.

Biological target: Yer184c (UniProt P39961)
Sequence: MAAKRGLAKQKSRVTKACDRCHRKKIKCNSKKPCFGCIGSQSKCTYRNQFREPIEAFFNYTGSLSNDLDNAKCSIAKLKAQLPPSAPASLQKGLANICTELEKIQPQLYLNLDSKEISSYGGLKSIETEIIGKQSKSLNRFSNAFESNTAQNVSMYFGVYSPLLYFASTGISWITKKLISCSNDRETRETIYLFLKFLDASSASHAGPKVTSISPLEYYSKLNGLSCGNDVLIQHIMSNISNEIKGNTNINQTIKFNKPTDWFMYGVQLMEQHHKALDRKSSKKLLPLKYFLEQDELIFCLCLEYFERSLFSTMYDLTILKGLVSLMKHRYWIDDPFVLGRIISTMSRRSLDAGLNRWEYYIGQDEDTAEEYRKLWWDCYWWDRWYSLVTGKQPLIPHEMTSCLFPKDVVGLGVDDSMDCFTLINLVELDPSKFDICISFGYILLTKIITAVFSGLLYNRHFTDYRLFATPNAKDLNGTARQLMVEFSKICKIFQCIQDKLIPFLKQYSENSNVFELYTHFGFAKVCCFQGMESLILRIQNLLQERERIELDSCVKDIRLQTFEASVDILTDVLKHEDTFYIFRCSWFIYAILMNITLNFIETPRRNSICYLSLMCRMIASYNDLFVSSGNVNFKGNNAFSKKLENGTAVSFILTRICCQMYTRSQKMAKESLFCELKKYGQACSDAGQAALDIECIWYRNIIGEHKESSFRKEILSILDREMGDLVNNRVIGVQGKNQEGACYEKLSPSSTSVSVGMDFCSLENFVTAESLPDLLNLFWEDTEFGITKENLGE
Assay: PBM E-score (8-mer binding enrichment) (E-score (-0.5 to 0.5)); higher = stronger / more preferred TF binding
Details: protein concentration: 100 nM; construct: GST-full length
Whole data set: some 33,000 sequences, median “E-score (-0.5 to 0.5)” near -0.016, cut for the highest 2% near 0.3. The sample holds the highest values, similar sequences and a random draw of the others, so the mix is not that of the screen.
// reported PBM E-score per item
quantity_name: PBM E-score

seq_string: AATGCAAT
val: -0.256
--
seq_string: GAAAGAGC
val: -0.0552
--
seq_string: ACGGCACC
val: -0.0473
--
seq_string: CCGGCATA
val: 0.291
--
seq_string: ATGCCGAA
val: 0.408
--
seq_string: TCGGCACA
val: 0.307
--
seq_string: GATCTAGC
val: -0.195
--
seq_string: ACCTCAAA
val: 0.137
--
seq_string: CGATGCGA
val: -0.0338
--
seq_string: ACAACCCG
val: 0.0761
--
seq_string: ATATAAAC
val: 0.17
--
seq_string: GCTAGCGA
val: -0.147
--
seq_string: ACTTCCGA
val: 0.285
--
seq_string: CACTCCGC
val: -0.0284
--
seq_string: ACAGCCGA
val: 0.0776
--
seq_string: CAGGCCGG
val: 0.108
--
seq_string: CCGGCACA
val: 0.314
--
seq_string: AATTATCA
val: 0.221
--
seq_string: AGAGCCGC
val: 0.0235
--
seq_string: ATATAACG
val: 0.255
--
seq_string: AACAGCTG
val: 0.0223
--
seq_string: CTTGGATC
val: -0.0713
--
seq_string: ATATATCC
val: 0.318
--
seq_string: CCGGCACG
val: 0.288
--
seq_string: CCCTCCGG
val: 0.1
--
seq_string: CATCAATC
val: -0.0552
--
seq_string: CACTCCGA
val: 0.0993
--
seq_string: GAACAATA
val: 0.313
--
seq_string: ACCCAACC
val: -0.191
--
seq_string: CCATAGAG
val: -0.11
--
seq_string: ATATAAAT
val: 0.305
--
seq_string: ACGGCACG
val: 0.194
--
seq_string: ATGCCGAG
val: 0.346
--
seq_string: TAGAAATA
val: 0.126
--
seq_string: AATTATCG
val: 0.305
--
seq_string: CTAGTGAG
val: -0.0187
--
seq_string: CCGGAAAC
val: 0.396
--
seq_string: AAGGCCGA
val: 0.338
--
seq_string: ACTCGATA
val: 0.0187
--
seq_string: CGATCACG
val: 0.165
--
seq_string: ATCAAGCG
val: 0.0135
--
seq_string: ATCCTATG
val: -0.0991
--
seq_string: CACTCCGG
val: 0.306
--
seq_string: ACTTCCGC
val: 0.166
--
seq_string: TCGCGTCA
val: -0.0846
--
seq_string: ACAGCCGC
val: -0.0252
--
seq_string: CTTTCCGA
val: 0.3
--
seq_string: ACGGCATC
val: 0.0862
--
seq_string: AAATAAAG
val: 0.045
--
seq_string: AAGGCCGG
val: 0.318
--
seq_string: GATGGACA
val: 0.183
--
seq_string: CTCACCCA
val: -0.0925
--
seq_string: GAAGCAAA
val: -0.0663
--
seq_string: AGAGCCGG
val: 0.314
--
seq_string: TACTCCGA
val: 0.262
--
seq_string: ATATAAAG
val: 0.0639
--
seq_string: GACTCCGA
val: -0.0256
--
seq_string: CGCATGAG
val: -0.284
--
seq_string: AAATTGCC
val: 0.168
--
seq_string: AATTATCC
val: 0.116
--
seq_string: ATTTCCGG
val: 0.445
--
seq_string: AAGAGGCC
val: -0.172
--
seq_string: CTATATCC
val: -0.119
--
seq_string: ATAGAGAA
val: 0.103
--
seq_string: GAGATTCC
val: 0.0978
--
seq_string: GAAAGCTA
val: 0.00964

* * *

Target: Yer184c (UniProt P39961)
Sequence: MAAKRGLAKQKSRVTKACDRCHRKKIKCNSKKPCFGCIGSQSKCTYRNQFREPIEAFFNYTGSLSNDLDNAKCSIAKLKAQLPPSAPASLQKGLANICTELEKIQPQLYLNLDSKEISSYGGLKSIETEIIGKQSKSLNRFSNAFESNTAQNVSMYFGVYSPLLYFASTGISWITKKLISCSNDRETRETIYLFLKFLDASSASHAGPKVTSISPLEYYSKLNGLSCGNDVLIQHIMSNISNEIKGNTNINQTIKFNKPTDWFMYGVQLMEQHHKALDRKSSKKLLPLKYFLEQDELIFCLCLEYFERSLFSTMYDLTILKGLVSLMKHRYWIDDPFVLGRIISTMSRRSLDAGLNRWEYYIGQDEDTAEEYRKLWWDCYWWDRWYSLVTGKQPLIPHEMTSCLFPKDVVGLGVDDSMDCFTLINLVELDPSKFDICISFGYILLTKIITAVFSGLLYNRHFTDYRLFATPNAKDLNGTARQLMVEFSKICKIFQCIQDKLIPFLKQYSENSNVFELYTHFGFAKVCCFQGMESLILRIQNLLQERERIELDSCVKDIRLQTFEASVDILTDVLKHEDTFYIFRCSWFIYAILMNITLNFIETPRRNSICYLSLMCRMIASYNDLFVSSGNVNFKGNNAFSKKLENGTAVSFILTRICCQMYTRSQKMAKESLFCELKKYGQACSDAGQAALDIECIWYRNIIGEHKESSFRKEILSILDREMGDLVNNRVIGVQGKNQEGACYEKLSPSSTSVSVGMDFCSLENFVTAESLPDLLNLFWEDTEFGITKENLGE
Assay: PBM E-score (8-mer binding enrichment) (E-score (-0.5 to 0.5)); higher = stronger / more preferred TF binding
Details: protein concentration: 100 nM; construct: GST-full length
Whole data set: some 33,000 sequences, median “E-score (-0.5 to 0.5)” near -0.016, cut for the highest 2% near 0.3. The entries come from a sample that favours the highest values as a whole.
quantity_name: PBM E-score

seq_string: TAAATTTA
quantity_name: PBM E-score
val: 0.311
--
seq_string: GCCGAAGA
quantity_name: PBM E-score
val: 0.315
--
seq_string: CCCGAAGA
quantity_name: PBM E-score
val: 0.105
--
seq_string: AGAAATTA
quantity_name: PBM E-score
val: 0.354
--
seq_string: ACCGAAGC
quantity_name: PBM E-score
val: 0.1
--
seq_string: CTAAATTA
quantity_name: PBM E-score
val: 0.202
--
seq_string: CAAAATTA
quantity_name: PBM E-score
val: 0.212
